Tested on: HCT116
Conditions Used: 72 h; ICRF193 200 nM
Where a name gives a salt, the structure may show the parent alone.
Reported Endpoint: IC50 cell viability

compound="C[N+]1(C)CCC(=C(c2ccccc2)c2ccccc2)CC1 [Diphemanil methylsulfate]" val="> 45.8 µM"
compound="C=C[C@]1(C)C[C@@H](OC(=O)CSCCN(CC)CC)[C@]2(C)[C@H](C)CC[C@]3(CCC(=O)[C@H]32)[C@@H](C)[C@@H]1O [Tiamulin]" val="> 45.8 µM"
compound="C=CCN.ClCC1CO1 (stereo not given) [Sevelamer Hydrochloride (Technical Grade)]" val="> 45.8 µM"
compound="O=S(=O)(O)CCCS(=O)(=O)O [1,3-Propanedisulfonic acid disodium salt]" val="> 45.8 µM"
compound="Cc1ccc(-c2ncc(Cl)cc2-c2ccc(S(C)(=O)=O)cc2)cn1 [Etoricoxib]" val="> 45.8 µM"
compound=CC(C)(C)CC(C)(C)c1cc(Cc2cc(C(C)(C)CC(C)(C)C)cc(-n3nc4ccccc4n3)c2O)c(O)c(-n2nc3ccccc3n2)c1 val="> 45.8 µM"
compound="O=c1[nH]c2ccccc2n1CCCN1CCC(n2c(=O)[nH]c3cc(Cl)ccc32)CC1 [Domperidone]" val="> 45.8 µM"
compound="COC(=O)[C@@H]1CC2=CC(=O)CC[C@]2(C)[C@@]23O[C@@H]2C[C@@]2(C)[C@@H](CC[C@@]24CCC(=O)O4)[C@H]13 [Eplerenone]" val="> 45.8 µM"
compound="C=C1/C(=C\\C=C2/CCC[C@]3(C)[C@@H]([C@H](C)CCCC(C)(C)O)CC[C@@H]23)C[C@@H](O)[C@@H](OCCCO)[C@@H]1O [Eldecalcitol]" val="> 45.8 µM"
compound="COc1cc(NS(C)(=O)=O)ccc1Nc1c2ccccc2nc2ccccc12 [Amsacrine]" val="20.6 µM"
compound="c1ccc2c(CC3=NCCN3)cccc2c1 [Naphazoline hydrochloride]" val="> 45.8 µM"
compound="CCC(C)(C)c1ccc(CC(C)CN2C[C@@H](C)O[C@@H](C)C2)cc1 (stereo not given in full) [Amorolfine hydrochloride]" val="> 45.8 µM"
compound="CC(C)CN(C[C@@H](OP(=O)(O)O)[C@H](Cc1ccccc1)NC(=O)O[C@H]1CCOC1)S(=O)(=O)c1ccc(N)cc1 [Fosamprenavir (Calcium Salt)]" val="> 45.8 µM"
compound="CC(=O)N(CC(O)CN(C(C)=O)c1c(I)c(C(=O)NCC(O)CO)c(I)c(C(=O)NCC(O)CO)c1I)c1c(I)c(C(=O)NCC(O)CO)c(I)c(C(=O)NCC(O)CO)c1I (stereo not given) [Iodixanol]" val="> 45.8 µM"
compound="N=C1CCCN1Cc1[nH]c(=O)[nH]c(=O)c1Cl [Tipiracil]" val="> 45.8 µM"
